Quick list: inhibition per entry.
testedOn: UniProt Q5MY95
Sequence (Q5MY95 whole entry): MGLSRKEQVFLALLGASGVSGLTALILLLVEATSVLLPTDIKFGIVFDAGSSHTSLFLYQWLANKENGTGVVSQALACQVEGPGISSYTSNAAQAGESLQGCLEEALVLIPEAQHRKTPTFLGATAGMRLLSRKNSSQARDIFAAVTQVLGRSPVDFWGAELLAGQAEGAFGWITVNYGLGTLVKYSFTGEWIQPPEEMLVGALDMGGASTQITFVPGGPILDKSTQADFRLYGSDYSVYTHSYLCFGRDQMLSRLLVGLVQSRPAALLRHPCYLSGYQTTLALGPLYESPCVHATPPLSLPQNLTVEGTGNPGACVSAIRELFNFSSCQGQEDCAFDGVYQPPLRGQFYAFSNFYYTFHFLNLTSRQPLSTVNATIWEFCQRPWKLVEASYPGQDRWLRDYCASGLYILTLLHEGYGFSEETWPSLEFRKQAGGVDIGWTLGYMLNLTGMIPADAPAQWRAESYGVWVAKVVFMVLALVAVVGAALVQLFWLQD
measurementProtocol: Inhibition of human NTPDase-8 using ATP as substrate assessed as inorganic phosphate release at 100 uM after 15 mins relative to control
Return type: number; implicit unit %.

Short answer for Nc1ncnc2c1ncn2[C@@H]1O[C@H](CO[P@@](O)(=S)OP(=O)(O)C(Cl)(Cl)P(=O)(O)O)[C@@H](O)[C@H]1O : inhibition was 0.5

Short answer for Nc1ncnc2c1ncn2[C@@H]1O[C@H](CO[P@](O)(=S)OP(=O)(O)CP(=O)(O)O)[C@@H](O)[C@H]1O : inhibition was 0.5

Short answer for Nc1ncnc2c1ncn2[C@@H]1O[C@H](CO[P@](O)(=S)OP(=O)(O)C(Cl)(Cl)P(=O)(O)O)[C@@H](O)[C@H]1O : inhibition was 4.9

Short answer for Nc1ncnc2c1ncn2[C@@H]1O[C@H](COP(=O)(O)CP(=O)(O)OP(O)(O)=S)[C@@H](O)[C@H]1O : inhibition was 7

Kindly consider the entry below.
Short answer for Nc1ncnc2c1ncn2[C@@H]1O[C@H](CO[P@@](O)(=S)OP(=O)(O)CP(=O)(O)O)[C@@H](O)[C@H]1O : inhibition was 1.5

---

testedOn: Ectonucleotide pyrophosphatase/phosphodiesterase family member 1 (Homo sapiens)
Sequence (P22413 whole entry): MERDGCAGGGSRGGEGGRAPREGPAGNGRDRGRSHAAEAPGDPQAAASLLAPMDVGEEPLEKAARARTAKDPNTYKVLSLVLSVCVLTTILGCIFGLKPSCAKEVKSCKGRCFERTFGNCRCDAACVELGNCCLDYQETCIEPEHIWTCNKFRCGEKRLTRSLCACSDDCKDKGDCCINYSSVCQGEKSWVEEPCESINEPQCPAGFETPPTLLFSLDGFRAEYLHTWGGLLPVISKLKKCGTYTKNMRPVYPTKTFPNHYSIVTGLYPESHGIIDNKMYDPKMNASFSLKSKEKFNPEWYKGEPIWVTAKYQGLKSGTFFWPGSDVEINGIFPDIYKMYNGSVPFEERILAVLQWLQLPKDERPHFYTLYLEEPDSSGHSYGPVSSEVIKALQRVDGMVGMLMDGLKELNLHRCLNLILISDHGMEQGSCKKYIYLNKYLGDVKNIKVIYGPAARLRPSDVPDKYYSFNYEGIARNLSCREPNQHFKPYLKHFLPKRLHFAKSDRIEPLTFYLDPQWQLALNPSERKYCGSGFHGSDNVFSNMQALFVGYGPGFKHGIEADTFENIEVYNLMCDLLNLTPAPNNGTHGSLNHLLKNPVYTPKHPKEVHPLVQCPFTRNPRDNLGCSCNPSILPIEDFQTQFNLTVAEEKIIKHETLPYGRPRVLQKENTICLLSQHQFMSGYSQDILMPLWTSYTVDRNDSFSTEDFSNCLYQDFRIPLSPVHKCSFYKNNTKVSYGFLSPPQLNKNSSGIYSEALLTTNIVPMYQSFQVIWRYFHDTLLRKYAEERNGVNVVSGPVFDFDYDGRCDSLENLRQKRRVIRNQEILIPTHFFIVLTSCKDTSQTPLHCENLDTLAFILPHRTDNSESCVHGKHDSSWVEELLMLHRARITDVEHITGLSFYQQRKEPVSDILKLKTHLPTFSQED
measurementProtocol: Mixed type inhibition of human NPP1 using pNP-TMP as substrate after 20 mins by Dixon and Cornish-Bowden method
metric: Ki (nM)
Return type: number; implicit unit nM.

Consider the following illustrative entries.
Short answer for Nc1ncnc2c1ncn2[C@@H]1O[C@H](CO[P@](O)(=S)OP(=O)(O)C(Cl)(Cl)P(=O)(O)O)[C@@H](O)[C@H]1O : Ki was 685

Short answer for Nc1ncnc2c1ncn2[C@@H]1O[C@H](CO[P@](O)(=S)OP(=O)(O)CP(=O)(O)O)[C@@H](O)[C@H]1O : Ki was 4500

Short answer for Nc1ncnc2c1ncn2[C@@H]1O[C@H](CO[P@@](O)(=S)OP(=O)(O)C(Cl)(Cl)P(=O)(O)O)[C@@H](O)[C@H]1O : Ki was 15200

Kindly consider the entry below.
Short answer for Nc1ncnc2c1ncn2[C@@H]1O[C@H](CO[P@@](O)(=S)OP(=O)(O)CP(=O)(O)O)[C@@H](O)[C@H]1O : Ki was 1300

---

Quick list: inhibition per entry.
testedOn: Ectonucleoside triphosphate diphosphohydrolase 3 (Homo sapiens)
measurementProtocol: Inhibition of human NTPDase-3 using ATP as substrate assessed as inorganic phosphate release at 100 uM after 15 mins relative to control
Return type: number; implicit unit %.

The value of inhibition recorded for Nc1ncnc2c1ncn2[C@@H]1O[C@H](CO[P@](O)(=S)OP(=O)(O)CP(=O)(O)O)[C@@H](O)[C@H]1O when tested on Ectonucleoside triphosphate diphosphohydrolase 3 (Homo sapiens) reads 26.8

The value of inhibition recorded for Nc1ncnc2c1ncn2[C@@H]1O[C@H](CO[P@@](O)(=S)OP(=O)(O)C(Cl)(Cl)P(=O)(O)O)[C@@H](O)[C@H]1O when tested on Ectonucleoside triphosphate diphosphohydrolase 3 (Homo sapiens) reads 18.7

The value of inhibition recorded for Nc1ncnc2c1ncn2[C@@H]1O[C@H](CO[P@@](O)(=S)OP(=O)(O)CP(=O)(O)O)[C@@H](O)[C@H]1O when tested on Ectonucleoside triphosphate diphosphohydrolase 3 (Homo sapiens) reads 24

Next:
The value of inhibition recorded for Nc1ncnc2c1ncn2[C@@H]1O[C@H](COP(=O)(O)CP(=O)(O)OP(O)(O)=S)[C@@H](O)[C@H]1O when tested on Ectonucleoside triphosphate diphosphohydrolase 3 (Homo sapiens) reads 40.2

The value of inhibition recorded for Nc1ncnc2c1ncn2[C@@H]1O[C@H](CO[P@](O)(=S)OP(=O)(O)C(Cl)(Cl)P(=O)(O)O)[C@@H](O)[C@H]1O when tested on Ectonucleoside triphosphate diphosphohydrolase 3 (Homo sapiens) reads 21.8

Values compiled from ChEMBL document CHEMBL3286381.
